System: human G-CSF (G21) promoter
ASSAY SUMMARY: High-throughput luciferase reporter assay, G-CSF promoter (Screen III)
REPORTED CONDITIONS: Screen III activators; G21 cells; 6 hours
MEASURED ENDPOINT: FOLD INDUCTION RELATIVE TO SOLVENT CONTROL, GCSF (fold)

- COMPOUND: "c1ncncn1"
  UNIT TAG: "fold"
  CENSORING SIGN: ">"
  EXPERIMENTAL RESULT: 3
- COMPOUND: "Nc1ccc2c(c1)C(=O)c1ccccc1-2"
  UNIT TAG: "fold"
  CENSORING SIGN: "="
  EXPERIMENTAL RESULT: 1.13
- COMPOUND: "Nc1nccs1"
  UNIT TAG: "fold"
  CENSORING SIGN: "="
  EXPERIMENTAL RESULT: 0.04
- COMPOUND: "CC(C=O)=CC=CC(C)=CC=CC=C(C)C=CC=C(C)C=CC1=C(C)CCCC1(C)C"
  UNIT TAG: "fold"
  CENSORING SIGN: "="
  EXPERIMENTAL RESULT: 1.15
- COMPOUND: "Clc1cc(Cl)cc(Br)c1"
  UNIT TAG: "fold"
  CENSORING SIGN: "="
  EXPERIMENTAL RESULT: 6.74
- COMPOUND: "Brc1cccc(-c2ccccc2)c1"
  UNIT TAG: "fold"
  CENSORING SIGN: "="
  EXPERIMENTAL RESULT: 3.29
- COMPOUND: "Nc1ccccc1SSc1ccccc1N"
  UNIT TAG: "fold"
  CENSORING SIGN: "="
  EXPERIMENTAL RESULT: 3.99
- COMPOUND: "CCCCCCCCCCCCCCCC(=O)OCC(COC(=O)CCCCCCCCCCCCCCC)OC(=O)CCCCCCCCCCCCCCC"
  UNIT TAG: "fold"
  CENSORING SIGN: "="
  EXPERIMENTAL RESULT: 0.28
- COMPOUND: "N[C@@H](CCCCNC(=O)OCc1ccccc1)C(=O)O"
  UNIT TAG: "fold"
  CENSORING SIGN: "="
  EXPERIMENTAL RESULT: 0.78
- COMPOUND: "CC(C)(C)c1ccc(Br)cc1"
  UNIT TAG: "fold"
  CENSORING SIGN: "="
  EXPERIMENTAL RESULT: 3.11
- COMPOUND: "Cc1c(C2(c3cc(Br)c(O)c(Br)c3C)OS(=O)(=O)c3ccccc32)cc(Br)c(O)c1Br"
  UNIT TAG: "fold"
  CENSORING SIGN: "="
  EXPERIMENTAL RESULT: 0.14
- COMPOUND: "Nc1ccc(C=CC(=O)O)cc1"
  UNIT TAG: "fold"
  CENSORING SIGN: "="
  EXPERIMENTAL RESULT: 4.97
- COMPOUND: "O=C1CCCCC1Cl (stereo not drawn)"
  UNIT TAG: "fold"
  CENSORING SIGN: "="
  EXPERIMENTAL RESULT: 0.45
- COMPOUND: "N=c1cc2oc3cc(N)ccc3nc-2c2ccccc12"
  UNIT TAG: "fold"
  CENSORING SIGN: "="
  EXPERIMENTAL RESULT: 3.50
- COMPOUND: "CC(=O)c1ccc[nH]1"
  UNIT TAG: "fold"
  CENSORING SIGN: "="
  EXPERIMENTAL RESULT: 0.43
- COMPOUND: "O=C(O)c1[nH]c(=O)[nH]c(=O)c1I"
  UNIT TAG: "fold"
  CENSORING SIGN: "="
  EXPERIMENTAL RESULT: 1.02
- COMPOUND: "Nc1ncnc2c1nc(Br)n2[C@@H]1O[C@H](CO)[C@@H](O)[C@H]1O"
  UNIT TAG: "fold"
  CENSORING SIGN: "="
  EXPERIMENTAL RESULT: 5.82
- COMPOUND: "CC(=O)n1ccnc1"
  UNIT TAG: "fold"
  CENSORING SIGN: "="
  EXPERIMENTAL RESULT: 6.03
- COMPOUND: "Nc1ccc2c(c1)Cc1ccccc1-2"
  UNIT TAG: "fold"
  CENSORING SIGN: "="
  EXPERIMENTAL RESULT: 0.74
- COMPOUND: "CON(C)C(=O)Nc1ccc(Cl)cc1"
  UNIT TAG: "fold"
  CENSORING SIGN: "="
  EXPERIMENTAL RESULT: 0.81
- COMPOUND: "O=C1OC2(c3cc(I)c(O)c(I)c3Oc3c2cc(I)c(O)c3I)c2c(Cl)c(Cl)c(Cl)c(Cl)c21"
  UNIT TAG: "fold"
  CENSORING SIGN: "="
  EXPERIMENTAL RESULT: 0.94
